Hey, just so you know, these numbers are from patent US20260258115A1.

- assay target: RSV F on recombinant mKate-RSV A2 virus (Respiratory syncytial virus A2, UniProt P03420 26-574)
- experiment summary: cell-based or functional assay
assay endpoint: Neut IC50 (ug/ml) subtype A (µg/mL)
One number for each entry, in µg/mL.

# input binder: ADI-21091 (antibody, V domains shown) VH: QVQLVQSGAEVKKPGESLRISCQYSAYGFSTYWISWVRQLPGKGLEWMGRIDPSDSHTTYSPSFQGHVTLSADKSISTVYLQWSSLKASDTAMYYCARHQEYSGSDLDSWGQGTLVTVSS VL: QPVLTQPPSVSAAPGQRVTISCSGTRSNIGYNFVSWYQQLPGTAPKLLIYDNNKRPSGIPDRFSGSKSGTSATLAITGLQTGDEADYYCGTWDSSLSALFGGGTKVTVL ; wanted: its Neut IC50 (ug/ml) subtype A
0.29
